Target Under Test: T1, DEAF1-FLAG (UniProt O75398 1-565)
T1 sequence: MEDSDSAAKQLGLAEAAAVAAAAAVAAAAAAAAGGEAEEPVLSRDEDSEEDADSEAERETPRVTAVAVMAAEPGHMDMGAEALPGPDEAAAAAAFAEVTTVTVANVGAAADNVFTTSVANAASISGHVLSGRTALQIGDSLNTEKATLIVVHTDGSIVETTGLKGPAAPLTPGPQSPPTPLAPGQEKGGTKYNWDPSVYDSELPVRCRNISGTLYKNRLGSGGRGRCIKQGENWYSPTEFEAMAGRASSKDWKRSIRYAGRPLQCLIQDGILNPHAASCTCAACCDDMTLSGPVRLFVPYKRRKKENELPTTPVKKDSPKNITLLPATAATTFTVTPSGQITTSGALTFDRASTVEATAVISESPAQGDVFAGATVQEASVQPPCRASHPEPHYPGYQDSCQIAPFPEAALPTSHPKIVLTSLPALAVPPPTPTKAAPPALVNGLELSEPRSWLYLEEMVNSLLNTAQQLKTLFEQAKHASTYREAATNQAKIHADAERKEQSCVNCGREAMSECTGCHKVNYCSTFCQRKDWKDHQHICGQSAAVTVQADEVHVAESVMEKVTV
Method Description: EMSA; EMSA: 200 ng DEAF1-FLAG, 30 min at room temperature, 1x EMSA binding buffer (composition and pH not given), 1 ug dA:dT, 5% native polyacrylamide gel
Test Parameters: protein: recombinant; tags: FLAG; chain copies: 2; label: 32P

>  <Binder>
9-space probe (dsDNA) DNA 1: TTGAGTTCGGGAAAACTTCGGGCTCAA DNA 2: TTGAGCCCGAAGTTTTCCCGAACTCAA

>  <binding result>
binds

$$$$
>  <Binder>
EIF4G3 promoter probe (dsDNA) DNA 1: ACTTCGGACTTTTTCGGAAT DNA 2: ATTCCGAAAAAGTCCGAAGT

>  <binding result>
binds

$$$$
